From: ChEMBL document CHEMBL5308504

- Subject Of Test: Aurora kinase A (Homo sapiens)
- Study Conditions: Compound concentration 20.0 uM, Protein concentration 2.0 uM, Result type QC Liability
Readout Label: ΔTm (°C)
Report the figure in °C without appending any unit label.

Molecule	Subject Of Test	ΔTm (°C)
N[C@@H]1CCCC[C@H]1Oc1ccc2ncc(-c3cc4ccccc4o3)n2n1	Aurora kinase A (Homo sapiens)	1.07
CN(C)CC#Cc1ccc2[nH]c3c(c2c1)-c1nc(N)ncc1CCC3	Aurora kinase A (Homo sapiens)	1.23
NCc1ccc(OCCCc2sc(-c3ccc4c(c3)/C(=N/Nc3nc5ccccc5s3)CCC4)nc2C(=O)O)cc1	Aurora kinase A (Homo sapiens)	1.25

Query :: Determine its reported ΔTm: "COc1cc2ncnc(Nc3ccc(F)c(Cl)c3)c2cc1OCCN(C)C[C@H](C)O"
Result :: 0.41

Query :: For "CN[C@@H](C)C(=O)N[C@H](C(=O)N1CCC[C@H]1c1nc(C(=O)c2ccc(F)cc2)cs1)C1CCCCC1" , write its ΔTm.
Result :: -1.15

Query :: Let me know recorded ΔTm for "Cc1cc(OCc2nc3ccccc3s2)ccc1NC(=O)Nc1ccc(Cl)c(Cl)c1" , thanks.
Result :: 0.13

Query :: In one line, give reported ΔTm of the entry "O=C(NC[C@@H]1[C@H]2CN(C(=O)OCc3cc(C(F)(F)F)cc(C(F)(F)F)c3)C[C@@H]12)c1ccc2[nH]nnc2c1" .
Result :: 0.61

Query :: Tell us which ΔTm value is on record for CC(=O)c1c(C)c2cnc(Nc3ccc(N4CCN(CCOCCOCCOCCNC(=O)COc5cccc6c5C(=O)N(C5CCC(=O)NC5=O)C6=O)CC4)cn3)nc2n(C2CCCC2)c1=O (stereo not given)
Result :: 0.61

Query :: Look up ΔTm of COc1ccc2c(O[C@@H]3C[C@H]4C(=O)N[C@]5(C(=O)NS(=O)(=O)C6(C)CC6)CC5/C=C\CCCCC[C@H](NC(=O)c5ccn(C)n5)C(=O)N4C3)cc(OC(C)C)nc2c1C (stereo not given in full) and report it.
Result :: -0.12

Query :: Output ΔTm of "CNC(=O)c1cc(C(=O)N[C@H]2[C@@H]3COC[C@@H]32)cc2c1O[C@H](CF)[C@H]2c1ccccc1"
Result :: 0.31

Query :: Item "C[C@@H](COCCC(=O)N1CCN(c2ncc(C(F)(F)F)cn2)CC1)Nc1cn[nH]c(=O)c1C(F)(F)F" : provide ΔTm
Result :: -0.45

Query :: Please report ΔTm for the following molecule: "Fc1ccc(-c2c3cccc(C(F)(F)F)c3nn2Cc2ccc(F)cc2Cl)cc1"
Result :: -1.66

Query :: Quick one: give measured ΔTm for "COc1cc(-c2nn([C@H]3CC[C@H](N4CCN(C(C)=O)CC4)CC3)c3ncnc(N)c23)ccc1NC(=O)c1cc2ccccc2n1C"
Result :: 8.28

Query :: Retrieve ΔTm measured for "Cn1cc(-c2cnc3ccc4ccc(CS(=O)(=O)NCc5ccccn5)cc4c(=O)c3c2)cn1" and print it.
Result :: 5.91

Query :: Identify measured ΔTm associated with "Cc1cc(C)nc(Nc2ncc(C(=O)NCCc3c(C)[nH]c4ccccc34)cn2)c1"
Result :: 0.27

* * *

- Subject Of Test: Aurora kinase A (Homo sapiens)
- Study Conditions: Compound concentration 20.0 uM, Protein concentration 2.0 uM, Result type QC Liability
The compounds listed here are annotated with their ΔTm.
Report the figure in °C without appending any unit label.

Some compounds with known ΔTm results, for comparison:
Compound	Readout Label	Numeric Readout
COc1c(-c2cn(C3CCC(=O)NC3=O)nn2)csc1C(=O)N1CCCC1 (stereo not given)	ΔTm	-1.14
COCCN1CCN(CCn2ccc(Nc3ncc4c(n3)-c3c(nn(C)c3-c3ccccc3)C[C@H]4C)n2)CC1	ΔTm	2.79
c1ccc2c(c1)SCc1c-2[nH]c2ccccc12	ΔTm	-4.16
CCS(=O)(=O)Nc1cccc(Oc2cncc(Nc3ccc(I)cc3F)c2C(N)=O)c1	ΔTm	1.45
Oc1c(-c2cccnc2)cnn1-c1ccccn1	ΔTm	-0.05
CCOC(=O)c1cc2cc(-c3cc(C(=O)NCc4ccc(C(=O)O)cc4)nn3C)ccc2[nH]1	ΔTm	1.73

Query :: Retrieve ΔTm measured for "COCc1c(-c2cc3cc(C)cc(OC)c3s2)c2c(N)ncnn2c1CN[C@@H]1CCNC1=O" and print it.
Result :: 3.49

Query :: Retrieve ΔTm measured for "COc1ccc(S(=O)(=O)N2CCOCC2)cc1Nc1ccc2c(n1)N(C1CCOCC1)[C@H](C)C(=O)N2C" and print it.
Result :: 0.03

Query :: Return ΔTm for the following compound: "C=CC[C@@H]1/C=C(\C)C[C@H](C)C[C@H](OC)[C@H]2O[C@@](O)(C(=O)C(=O)N3CCCC[C@H]3C(=O)O[C@H](/C(C)=C/[C@@H]3CC[C@@H](O)[C@H](OC)C3)[C@H](C)[C@@H](O)CC1=O)[C@H](C)C[C@@H]2OC"
Result :: -0.2

Query :: Give me measured ΔTm, please, for this compound: "CCN(CC)C/C=C/C(=O)Nc1cc2c(Nc3ccc(F)c(Cl)c3)ncnc2cc1OCC1CC1"
Result :: 1.29

Query :: In one line, give reported ΔTm of the entry "COC1(C#Cc2ccc(Cl)c(-c3ncc4c(n3)-c3sc(NC(C)=O)nc3CC4)c2)CCN(C)CC1" .
Result :: 0

Query :: Please give measured ΔTm of the following entry: "COc1c(NC(=O)c2cc3cccc(Oc4ccnc(C(=O)N5CCN(C)CC5)c4)c3n2C)cc(C(C)(C)C)cc1NS(C)(=O)=O"
Result :: -1.1

Query :: Please give the documented ΔTm of "CN[C@@H](C)C(=O)N[C@H](C(=O)N1CCC[C@H]1C(=O)Nc1sc(-c2ncco2)nc1-c1ccccc1)C1CCCCC1"
Result :: -0.03

Query :: In one line, give reported ΔTm of the entry "CN1CCC(F)(Cn2cnc(-c3ccc(F)cn3)c2-c2ccnc3[nH]ccc23)CC1" .
Result :: -0.98

Query :: Give the measured ΔTm for "C[C@H](CCOc1cccc(CC(=O)O)c1)N(Cc1cccc(C(F)(F)F)c1Cl)CC(c1ccccc1)c1ccccc1"
Result :: -2.31

* * *

- Subject Of Test: Tyrosine-protein kinase ABL1 (Homo sapiens) (UniProt P00519)
- Sequence (P00519 whole entry): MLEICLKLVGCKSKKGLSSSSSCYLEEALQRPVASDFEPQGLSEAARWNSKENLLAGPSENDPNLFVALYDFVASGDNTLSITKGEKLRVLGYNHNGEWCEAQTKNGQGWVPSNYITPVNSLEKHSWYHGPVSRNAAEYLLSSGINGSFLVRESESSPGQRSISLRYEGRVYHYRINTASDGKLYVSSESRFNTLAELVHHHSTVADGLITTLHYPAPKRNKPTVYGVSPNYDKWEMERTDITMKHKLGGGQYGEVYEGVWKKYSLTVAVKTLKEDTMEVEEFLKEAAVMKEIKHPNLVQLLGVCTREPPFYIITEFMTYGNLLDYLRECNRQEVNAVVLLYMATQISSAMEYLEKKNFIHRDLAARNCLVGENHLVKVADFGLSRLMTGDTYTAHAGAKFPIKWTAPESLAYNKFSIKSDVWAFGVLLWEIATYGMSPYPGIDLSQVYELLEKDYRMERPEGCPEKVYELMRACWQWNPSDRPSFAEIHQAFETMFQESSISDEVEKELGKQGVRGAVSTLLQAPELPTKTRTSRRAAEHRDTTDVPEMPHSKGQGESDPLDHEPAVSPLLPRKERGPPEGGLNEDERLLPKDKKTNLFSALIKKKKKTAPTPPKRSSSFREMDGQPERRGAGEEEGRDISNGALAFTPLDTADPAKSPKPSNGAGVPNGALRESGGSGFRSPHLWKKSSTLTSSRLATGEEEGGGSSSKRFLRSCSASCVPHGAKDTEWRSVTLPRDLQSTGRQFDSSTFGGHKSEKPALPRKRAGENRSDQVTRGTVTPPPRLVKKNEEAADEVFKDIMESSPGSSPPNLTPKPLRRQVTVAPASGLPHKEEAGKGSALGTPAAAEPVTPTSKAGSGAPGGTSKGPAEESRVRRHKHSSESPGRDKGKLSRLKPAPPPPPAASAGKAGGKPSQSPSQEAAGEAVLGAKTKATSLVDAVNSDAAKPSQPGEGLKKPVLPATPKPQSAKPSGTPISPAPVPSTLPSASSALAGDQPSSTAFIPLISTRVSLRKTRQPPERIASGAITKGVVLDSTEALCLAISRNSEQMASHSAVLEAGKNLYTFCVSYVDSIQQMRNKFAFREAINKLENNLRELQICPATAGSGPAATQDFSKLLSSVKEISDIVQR
- Study Conditions: Compound concentration 20.0 uM, Protein concentration 2.0 uM, Result type QC Liability
- Description: Thermal Shift Assay. Domain: start/stop: S229-K512
Readout Label: ΔTm

Compound	Result
COc1cc(C(=O)NCCOCCOCCOCCC(=O)Nc2cccc3c2C(=O)N(C2CCC(=O)NC2=O)C3=O)ccc1Nc1ncc(C(F)(F)F)c(Oc2cccc3c2C(=O)CC3)n1 (stereo not drawn)	-0.1 °C
CC(C)Nc1ncnc2cc(OCc3cccc([S@@](C)(=N)=O)c3)c(Br)cc12	2.87 °C
NC1(c2ccc(-c3nc4c(O)ccnn4c3-c3ccccc3)cc2)CCC1	0.22 °C
COc1cc2nc([C@@H]3CCCS(=O)(=O)C3)n(C)c2cc1NC(=O)c1cccc(C(C)(F)F)n1	0.81 °C

Query :: Give ΔTm for this entry on Tyrosine-protein kinase ABL1 (Homo sapiens) (UniProt P00519): "Fc1ccc(-c2nc(-c3ccc4ccccc4c3F)[nH]c2-c2ccncc2)cc1"
Result :: 4.64 °C

Query :: Write ΔTm of "OC(c1ccc(-c2ccc(CN3CCN(Cc4ccncc4)CC3)cc2)c(F)c1)(C(F)(F)F)C(F)(F)F" ; system used: Tyrosine-protein kinase ABL1 (Homo sapiens) (UniProt P00519)
Result :: -0.1 °C

Query :: Please respond with reported ΔTm (system Tyrosine-protein kinase ABL1 (Homo sapiens) (UniProt P00519)) for "O=C(O)c1ccc2c(c1)nc(NCc1ccccc1)c1ncncc12" .
Result :: 0.29 °C

* * *

- Subject Of Test: Casein kinase I isoform delta (Homo sapiens)
- Study Conditions: Compound concentration 20.0 uM, Protein concentration 2.0 uM, Result type QC Liability
- Description: Thermal Shift Assay. Domain: start/stop: M1-K294
In plain terms, low ΔTm, meaning strictly below 0.1 °C, gives 1 (yes), and everything else gives 0 (no).

> print(dat)
                                   compound  category.label
1  C[C@@]1(Cc2ccc(C#N)cc2)C(=O)N(c2cc(Cl)cc(Cl)c2)c2ncc(C(=O)NC3(c4nc(C5CCC5)no4)CC3)n21          0 (no)
2  Cc1cc(Cn2c(N3CC4(CNC4)C3)nc3c(N4CCN(C)CC4)cc(Cl)cc32)cc(C)c1F          0 (no)
3  COc1cc(-c2cc([C@H](O)C3CC3)n3ncnc(N)c23)ccc1CO          0 (no)
4  CCc1ncnc(N2CCN(C(C)=O)CC2)c1C#Cc1ccc(N)nc1          0 (no)
5          CN(C)CCCN1c2ccccc2Sc2ccc(Cl)cc21         1 (yes)
6  CC(=O)Nc1nc(C)c(S(=O)(=O)Nc2ccc(C(O)(C(F)(F)F)C(F)(F)F)cc2)s1          0 (no)
7  Cc1nc2c(cc1F)c(-c1nnc3c(n1)NC(=O)C3(C)C)nn2Cc1cccc(F)c1F          0 (no)
8  CC#CC(=O)N1CCN(c2nc(-c3ccc(Oc4ccccc4)cc3)c(C(N)=O)s2)CC1         1 (yes)

Turning now to a further record.
Query :: Field: below-cutoff. Rule: recorded ΔTm strictly less than 0.1 °C. Subject: O=C(O)CCCCCC[C@@H]1C(=O)NC(=O)N1CCC(O)C1CCCCC1 (some centres undefined)
Result :: 1 (yes)
